The measurements presented in this section are drawn from patent US10351575B2.

SYSTEM_NAME: DYRK2 (Homo sapiens (Human), UniProt Q92630)
Sequence (Q92630 whole entry): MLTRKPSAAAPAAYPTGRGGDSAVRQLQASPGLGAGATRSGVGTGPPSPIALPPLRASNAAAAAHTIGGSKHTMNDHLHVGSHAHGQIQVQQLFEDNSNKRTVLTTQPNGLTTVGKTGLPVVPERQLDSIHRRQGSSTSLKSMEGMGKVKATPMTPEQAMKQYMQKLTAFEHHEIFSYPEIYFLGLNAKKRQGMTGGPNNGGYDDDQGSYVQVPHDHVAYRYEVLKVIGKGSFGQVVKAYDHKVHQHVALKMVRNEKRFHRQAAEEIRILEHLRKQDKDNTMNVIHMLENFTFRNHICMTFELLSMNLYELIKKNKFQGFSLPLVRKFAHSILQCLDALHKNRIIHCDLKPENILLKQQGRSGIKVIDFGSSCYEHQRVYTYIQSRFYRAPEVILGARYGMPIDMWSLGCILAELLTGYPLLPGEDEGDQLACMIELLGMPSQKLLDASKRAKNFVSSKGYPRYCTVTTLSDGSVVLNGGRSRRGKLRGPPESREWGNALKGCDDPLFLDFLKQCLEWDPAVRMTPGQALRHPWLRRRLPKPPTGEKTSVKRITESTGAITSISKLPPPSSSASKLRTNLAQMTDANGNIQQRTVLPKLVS
MEASUREMENT_NOTES: KinaseProfiler off-target kinase profiling
Format: biochemical
RUN_CONDITIONS: 10 μM, ATP near Km
Measured Avg. POC accompanies every entry in the list below.
Give the quantity in POC, number only.

COCc1ccc2c(c1)C(NC(=O)Nc1c(C)c(-c3cnn(C)c3)nn1-c1ccccc1)COC2 (stereo not shown) [Example 32] :: 97.5
Cc1c(-c2cnn(C)c2)nn(-c2ccccc2)c1NC(=O)N[C@H]1CCCc2ccccc21 [Example 2] :: 98
Cc1c(-c2cnn(C)c2)nn(-c2ccccc2)c1NC(=O)NC1CCOc2cc(F)ccc21 (stereo not shown) [Example 12] :: 97.5

Here is another compound to look at.
Q: Data request, read-out Avg. POC, for Cc1c(-c2ccc(=O)n(C)c2)nn(-c2ccccc2)c1NC(=O)NC1CN(CC(F)(F)F)Cc2ccccc21 (stereo not shown) [Example 26]
Ans: 103
